# System: Vero E6 infected with SARS-CoV-2
# Assay Name: inhibition of SARS-CoV-2 cytopathic effect; higher = more antiviral protection, active = above 15
# Experimental Setup: 833.33 nM; 48 h
Entries and their measured inhibition of SARS-CoV-2 cytopathic effect follow.
Observed Property: inhibition of SARS-CoV-2 cytopathic effect (%)

COP(=O)(OC)OC(c1ccc(Cl)cc1)P(=O)(OC)OC (stereo not given) [mifobate] :: -2.04
O=C(O)CC[C@H]1CC[C@@](c2cc(F)ccc2F)(S(=O)(=O)c2ccc(Cl)cc2)CC1 :: -7.63
Cc1ccc2c(N3CCN(CCc4cccc(N5CCNC5=O)c4)CC3)cccc2n1 :: 1.55
CC(C)C(=O)OC[C@H]1O[C@@H](n2ccc(N)nc2=O)[C@](C)(F)[C@@H]1OC(=O)C(C)C :: -0.85
COc1ccc2nc3ccc(Cl)cc3c(SCCCN)c2c1 :: 0.79
O=C(O)c1cc(/N=N/c2ccc(S(=O)(=O)Nc3ccccn3)cc2)ccc1O :: -1.38
COc1ccc(-c2ccc3cc(C(=O)O)ccc3c2)cc1C12CC3CC(CC(C3)C1)C2 :: 2.31
CC(=O)[C@H]1CC[C@H]2[C@@H]3CCC4=CC(=O)CC[C@]4(C)[C@H]3CC[C@]12C :: 2.43
CCCCCCOc1ccccc1C(N)=O [exalamide] :: -0.34
CC[C@H](C)n1cc(C)c2c(C(=O)NCc3c(C)cc(C)[nH]c3=O)cc(-c3ccc(N4CCNCC4)nc3)cc21 :: 1.5
CCOP(=S)(OCC)Oc1cc(C)nc(C(C)C)n1 [dimpylate] :: 1.11
CCc1cc(-c2[nH]nc(C)c2-c2ccc3c(c2)OCCO3)c(O)cc1O :: -1.82
CC(C)N1CCN(c2ccc(OCC3COC(Cn4cncn4)(c4ccc(Cl)cc4Cl)O3)cc2)CC1 (stereo not given) :: -1.24
O=C(/C=C/c1cccnc1)NCCCCC1CCN(C(=O)c2ccccc2)CC1 :: -24.1
Oc1ccc(/C=C/c2cc(O)cc(O)c2)cc1 :: -0.25
Cc1nc2c(OCc3ccccc3)cccn2c1CC#N :: 0.07
CC(=O)N(OCc1ccccc1)[C@@H]1c2cc(C#N)ccc2OC(C)(C)[C@H]1O :: 2.7
O=C(NCC1(N2CCN(c3ccccc3)CC2)CCOCC1)c1cccnc1Sc1ccccc1 :: -2.18
CCN(CC)CCOC(=O)C(c1ccccc1)c1ccccc1 :: 1.64
CN(C)CCc1c[nH]c2ccc(CS(=O)(=O)N3CCCC3)cc12 :: 0.04
